B1: HEEH_KT_rd6_0790 (parent)
chain: SEEEEEEWRRAKERGEEIIILGILWKPNDEEAERRIKEALRRV

Variants of: B1
experimental_protocol: folding stability dG (cDNA display proteolysis); higher = more stable
test_settings: PBS, room temperature
measured_parameter: folding stability dG (kcal/mol)
Entry rule: numbers only, all in kcal/mol.

| variant_annotation | folding stability dG, kcal/mol |
| --- | --- |
| E31D | 2.14 |
| E5H | 1.8 |
| K26R | 2.4 |
| A11D | 0.949 |

Tell me the measured folding stability dG of W25Y , please.
1.25

Which folding stability dG value is on record for K12A ?
1.59
